# protocol: qHTS for Inhibitors of human tyrosyl-DNA phosphodiesterase 1 (TDP1): qHTS in cells in absence of CPT; note: nearly all actives have a fitted effect of over 55% in size
# conditions: DT40 Tdp1-/- hTDP1 cells, no CPT, ATP luminescence, 48 h
Out of some 420,000 compounds screened, about 64,000 (15%) were called active. About 27% were inconclusive and are not listed. Calls come from the whole dose curve; as a rule, active = well fitted inhibition curve with a large enough effect; inconclusive = small, poorly fitted or top-dose-only effect; inactive = flat fitted curve, though single readings scatter. A selection follows.
Reply using exactly one outcome from True = active, False = inactive

- molecule: "COc1cc(Br)cc2cc(S(=O)(=O)c3ccccc3)c(=O)oc12"
  label_value: "False"

In this assay, the call recorded for O=C(CN1CCN(C(=O)c2ccco2)CC1)Nc1ccc2c(c1)OCO2 was what? False

In this assay, the call recorded for CCOc1ncccc1C(=O)OCC(=O)N1c2ccccc2CC1C (stereo unspecified) was what? False

In this assay, the call recorded for CCn1c(CC(=O)Nc2ccccc2)nnc1SCC(=O)N1CCOCC1 was what? False

In this assay, the call recorded for CCOC(=O)Nc1ccc2c(c1)N(C(=O)CCCl)c1ccccc1[S@]2=O was what? True

In this assay, the call recorded for O=C(c1cc(-c2cccc(O)c2)on1)N1CCc2ccccc2C1 was what? False

In this assay, the call recorded for CCN(CC)N=Nc1cccc(NC(C)=O)c1 was what? True

In this assay, the call recorded for COc1ccc(OC)c(NC(=O)CN2CCN(C(=O)c3ccco3)CC2)c1 was what? False

In this assay, the call recorded for CC(=O)c1cccc(NC(=O)c2ccncc2)c1 was what? False

In this assay, the call recorded for Cc1cc(C)cc(C(=O)NCC(=O)OCC(=O)N2CCCCC2)c1 was what? False

In this assay, the call recorded for Cc1ccc(CNC(=O)CCNS(=O)(=O)c2ccc3c(c2)oc(=O)n3C)cc1 was what? False
